Assign remaining at 0.5 h to each entry below.
Assay: Metabolic stability in mouse liver microsomes after 30 mins
Assay type: ADME, Microsome
Conditions: read-out: Stability
Quick note: give the figure in %, leave out the unit.

Q: Quick check: remaining at 0.5 h of CC(C)CCNc1ccc(-c2cnc3ccc(NC4CCN(C)C4)nn23)cn1 (centres undefined) ?
A: 74

Q: Quick check: remaining at 0.5 h of `CC(C)CCNc1ccc(-c2cnc3ccc(N4CCC(N)CC4)nn23)cn1` ?
A: 90

Q: Quick check: remaining at 0.5 h of `CC(C)CCNc1ccc(-c2cnc3ccc(NC4CCN(C)CC4)nn23)cn1` ?
A: 63

Q: Quick check: remaining at 0.5 h of `CC(C)CCNc1ccc(-c2cnc3ccc(N4CCC(N(C)C)CC4)nn23)cn1` ?
A: 84
